Parameter IC50: see the listing below.
experimentalTarget: p38MAPKγ (MAPK12) (Homo sapiens)
Construct: purchased Life Technologies
Sequence (P53778 whole entry): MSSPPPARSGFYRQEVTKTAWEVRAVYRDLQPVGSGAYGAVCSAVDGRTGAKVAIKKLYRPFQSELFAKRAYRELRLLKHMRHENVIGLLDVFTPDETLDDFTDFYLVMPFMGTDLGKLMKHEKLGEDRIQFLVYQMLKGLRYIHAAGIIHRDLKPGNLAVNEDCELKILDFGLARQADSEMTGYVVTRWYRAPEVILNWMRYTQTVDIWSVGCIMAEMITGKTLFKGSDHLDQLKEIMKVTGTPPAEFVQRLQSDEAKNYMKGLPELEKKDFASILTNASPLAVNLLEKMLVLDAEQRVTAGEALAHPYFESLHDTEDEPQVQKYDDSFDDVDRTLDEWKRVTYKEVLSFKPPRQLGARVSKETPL
assayProtocol: p38 MAPKγ enzyme inhibition (Z-LYTE FRET)
Assay type: biochemical
conditionLabel: Table 2B, unit inferred; read-out: p38 MAPKγ (Enzyme Profile)
Description: The enzyme inhibitory activities of compounds disclosed herein were determined by FRET using synthetic peptides labelled with both donor and acceptor fluorophores (Z-LYTE, Life Technologies, Paisley, UK). The inhibitory activities of compounds of the invention against p38MAPKγ (MAPK12: Life Technologies), were evaluated by determining the level of activation/phosphorylation of the target peptide. […]
experimentalReadout: IC50

{"compound": "Cc1ccc(-n2nc(C(C)(C)C)cc2NC(=O)Nc2ccc(OCc3ccnc(Nc4cnc(C(=O)N5CC(F)C5)cn4)c3)c3ccccc23)cc1 [Example 193]", "experimentalResult": "> 14300 nM"}
{"compound": "CC(C)(C)c1cc(NC(=O)Nc2ccc(OCc3ccnc(Nc4cnc(CO)cn4)c3)c3ccccc23)n(-c2cccc(Cl)c2)n1 [Example 256]", "experimentalResult": "> 15400 nM"}
{"compound": "COc1cc(C)cc(-n2nc(C(C)(C)C)cc2NC(=O)Nc2ccc(OCc3ccnc(Nc4cnc(C(=O)N5CCCC5)cn4)c3)c3ccccc23)c1 [Example 227]", "experimentalResult": "> 13800 nM"}
{"compound": "CC(=O)N1CCN(C(=O)c2cnc(Nc3cc(COc4ccc(NC(=O)Nc5cc(C(C)(C)C)nn5-c5ccc(C)cc5)c5ccccc45)ccn3)cn2)CC1 [Example 240]", "experimentalResult": "80 nM"}
{"compound": "Cc1ccc(-n2nc(C(C)(C)C)cc2NC(=O)Nc2ccc(OCc3ccnc(Nc4cnc5c(n4)CCC5)c3)c3ccccc23)cc1 [Example 130]", "experimentalResult": "2790 nM"}
{"compound": "COCCCc1cnc(Nc2cc(COc3ccc(NC(=O)Nc4cc(C(C)(C)C)nn4-c4ccc(C)cc4)c4ccccc34)ccn2)cn1 [Example 188]", "experimentalResult": "442 nM"}
{"compound": "Cc1ccc(-n2nc(C(C)(C)C)cc2NC(=O)Nc2ccc(OCc3ccnc(Nc4cnc(C(=O)NCCCN5CCOCC5)cn4)c3)c3ccccc23)cc1 [Example 279]", "experimentalResult": "116 nM"}
{"compound": "CO[C@H]1CCCN(CCNC(=O)c2cnc(Nc3cc(COc4ccc(NC(=O)Nc5cc(C(C)(C)C)nn5-c5ccc(C)cc5)c5ccccc45)ccn3)cn2)C1 [Example 54]", "experimentalResult": "150 nM"}
{"compound": "Cc1ccc(-n2nc(C(C)(C)C)cc2NC(=O)Nc2ccc(OCc3ccnc(Nc4cnc(C(=O)NCCN5CCCCC5)cn4)c3)c3ccccc23)cc1 [Example 79]", "experimentalResult": "101 nM"}
{"compound": "Cc1ccc(-n2nc(C(C)(C)C)cc2NC(=O)Nc2ccc(OCc3ccnc(Nc4cnc(C(=O)N5CCC(F)CC5)cn4)c3)c3ccccc23)cc1 [Example 176]", "experimentalResult": "458 nM"}
{"compound": "COCc1cccc(-n2nc(C(C)(C)C)cc2NC(=O)Nc2ccc(OCc3ccnc(Nc4cnc(C(=O)NCCN5CCOCC5)cn4)c3)c3ccccc23)c1 [Example 270]", "experimentalResult": "66 nM"}
{"compound": "CC(C)(C)c1cc(NC(=O)Nc2ccc(OCc3ccnc(Nc4cnccn4)c3)c3ccccc23)n(-c2ccc(F)cc2)n1 [Example 187]", "experimentalResult": "180 nM"}
{"compound": "Cc1ccc(-n2nc(C(C)(C)C)cc2NC(=O)Nc2ccc(OCc3ccnc(Nc4cnc(C(=O)N5CCN6CCC[C@H]6C5)cn4)c3)c3ccccc23)cc1 [Example 275]", "experimentalResult": "129 nM"}
